Target: FLT3 D835V (Homo sapiens, UniProt P36888, D835V)
Experiment: DiscoverX KINOMEscan active site-directed competition binding, FLT3 D835V
Conditions: Table 18; no ATP
Attribute: Kd

Lookup result for COc1cn2ncc(-c3nc(N[C@H]4CNCC[C@@H]4F)ncc3F)c2nc1C(C)(C)O [Compound 6a] ; measured Kd: < 0.17 nM

Recorded result, COc1cn2ncc(-c3cncc(N[C@H]4CNCC[C@@H]4F)n3)c2nc1C1CC1 [Compound 12a] , Kd: < 0.17 nM

What the record says about COc1cn2ncc(-c3nc(N[C@H]4CNCC[C@@H]4F)ncc3F)c2nc1C1CC1 [Compound 15a] : Kd is 0.28 nM

// sample COc1cn2ncc(-c3nc(N[C@@H]4CCCNC4)ncc3F)c2nc1C1CC1 [Compound 14a] , its Kd was < 0.17 nM

get_value(item= COc1cn2ncc(-c3ccnc(N[C@H]4CNCC[C@@H]4F)n3)c2nc1C1CC1 [Compound 7a] , readout=Kd) returns 0.48 nM

----------
This section presents compounds with their documented IC50 values.
Target: IRAK4 (Homo sapiens, UniProt Q9NWZ3)
Sequence (Q9NWZ3 whole entry): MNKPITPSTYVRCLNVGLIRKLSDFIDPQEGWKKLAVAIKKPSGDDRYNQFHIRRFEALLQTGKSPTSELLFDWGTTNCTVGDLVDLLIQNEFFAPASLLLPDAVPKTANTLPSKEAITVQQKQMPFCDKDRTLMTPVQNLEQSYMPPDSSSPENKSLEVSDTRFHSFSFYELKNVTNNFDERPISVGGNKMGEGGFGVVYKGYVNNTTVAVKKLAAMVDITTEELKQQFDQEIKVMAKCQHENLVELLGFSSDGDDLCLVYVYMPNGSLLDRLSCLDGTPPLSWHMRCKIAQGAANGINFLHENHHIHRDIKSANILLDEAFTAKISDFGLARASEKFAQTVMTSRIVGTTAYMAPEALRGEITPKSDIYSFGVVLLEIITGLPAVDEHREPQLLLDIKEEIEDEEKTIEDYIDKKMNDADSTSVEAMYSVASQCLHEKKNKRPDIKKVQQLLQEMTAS
Assay: RBC HotSpot kinase inhibition assay, IRAK4
Type: biochemical
Conditions: Table 11; isolated kinase, 33P-ATP, 2 h
Excerpt: This assay uses the isolated kinase enzyme. This assay is very useful for determining competition of the inhibitor for ATP and/or substrates and for measuring the kinetics of enzyme inhibition. […] Unlike kinase binding assays that measure competition for ATP, the HotSpot Kinase Assay is a functional assay that measures catalytic activity; as such it measures relative functional potency regardless of the mechanism of enzyme inhibition. […]

Use these answered entries as a reference point.
COMPOUND	IC50
COc1cn2ncc(-c3nc(N[C@@H]4CCCNC4)c(C#N)cc3F)c2nc1C1CC1 [Compound 8]	< 0.5 nM
COc1cn2ncc(-c3cccc(N[C@@H]4CCCNC4)n3)c2nc1C1CC1 [Compound 20]	5 nM

// below: IC50 requested for another compound
GET /value?item= COc1cn2ncc(-c3nc(N[C@H]4CNCC[C@@H]4F)c(C#N)cc3F)c2nc1C1CC1 [Compound 7] &field=IC50 returns < 0.5 nM

----------
Target: FLT3 N841I (Homo sapiens, UniProt P36888, N841I)
Test: DiscoverX KINOMEscan active site-directed competition binding, FLT3 N841I
Conditions: Table 19; no ATP
PROPERTY_MEASURED: pKd
In textbook form, pKd equals minus log to base ten of the concentration in mol/L.

These recorded examples may help you get a feel for the data.
MOLECULE	VAL
COc1cn2ncc(-c3ccnc(N[C@H]4CNCC[C@@H]4F)n3)c2nc1C1CC1 [Compound 7a]	9.21
COc1cn2ncc(-c3cncc(N[C@H]4CNCC[C@@H]4F)n3)c2nc1C1CC1 [Compound 12a]	9.57

Entry COc1cn2ncc(-c3nc(N[C@H]4CNCC[C@@H]4F)ncc3F)c2nc1C(C)(C)O [Compound 6a] , tested on FLT3 N841I (Homo sapiens, UniProt P36888, N841I), has a reported pKd of 9.15

----------
Tested on: NF-κB
Test: NF-κB SEAP reporter assay in THP-1-Blue NF-κB cells, Pam3CSK4 stimulated
Type: cell-based
Conditions: Table 15; THP-1-Blue cells, 1 ng/ml Pam3CSK4, 24 h; read-out: NF-κB Pam3SCK4 IC50
# key: entry, value: IC50

COMPOUND	PROPERTY_MEASURED	VAL
COc1cn2ncc(-c3nc(N[C@H]4CNCC[C@@H]4F)c(F)cc3F)c2nc1C(C)(C)O [Compound 13]	IC50	99 nM
COc1cn2ncc(-c3ccc(F)c(N[C@H]4CNCC[C@@H]4F)n3)c2nc1C1CC1 [Compound 6]	IC50	300 nM
COc1cn2ncc(-c3nc(N[C@@H]4CCCNC4)c(F)cc3F)c2nc1C(C)(C)O [Compound 11]	IC50	128 nM
COc1cn2ncc(-c3nc(N[C@H]4CNCC[C@@H]4F)ccc3F)c2nc1C1CC1 [Compound 3]	IC50	22 nM
COc1cn2ncc(-c3cccc(N[C@@H]4CCCNC4)n3)c2nc1C1CC1 [Compound 20]	IC50	441 nM

Summary for this compound, COc1cn2ncc(-c3cccc(N[C@H]4CNCC[C@@H]4F)n3)c2nc1C1CC1 [Compound 21] : IC50 is 362 nM

Looking up COc1cn2ncc(-c3nc(N[C@@H]4CCCNC4)ccc3F)c2nc1C1CC1 [Compound 2] , I see its IC50 listed as 71 nM

Looking up COc1cn2ncc(-c3cccc(N[C@H]4CNC[C@@H]4F)n3)c2nc1C1CC1 [Compound 19] , I see its IC50 listed as 61 nM
